Ref: patent US20210395354A1

The binders listed here are annotated with their koff.
- target-or-system: T1, human NGF (his tag) (human, UniProt P01138 122-241, limits assumed)
- T1 construct: Captured on Ni-NTA sensors in the ForteBio Octet assay; also called hNGF; antigen; not shown: his tag
- T1 sequence (P01138 122-241 limits assumed): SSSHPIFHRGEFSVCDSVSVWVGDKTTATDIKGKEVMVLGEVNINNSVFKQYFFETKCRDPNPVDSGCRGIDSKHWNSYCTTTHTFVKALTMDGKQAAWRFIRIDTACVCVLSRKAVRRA
- experiment-description: BLI (ForteBio Octet), method of example 4
Give the quantity in s⁻¹, number only.

| binder | measured-parameter | reported-result |
| --- | --- | --- |
| humanized antibody AB5C2 (antibody, V domains shown, Humanized from #56 by CDR transplantation) VH: QVQLQESGPGLVKPSETLSLTCTVSGFSLTGYGVNWVRQPPGKGLEWLGMIWADGDTDYNSALKSRVTISKDTSKNQFSLKLSSVTAADTARYYCARDSYYYGYNFFDVWGAGTTVTVSS VL: DIQMTQSPSSLSASVGDRVTITCRASQDISNYLNWYQQKPGKAPKLLIYYTSRLHSGVPSRFSGSGSGTDFTFTISSLQPEDIATYFCQQGNTLPRTFGGGTKVEIK | koff | 2.16e-06 |

Query: Look up koff for this binder: human mouse chimeric antibody AB5D1 (antibody, V domains shown) VH: QVQLQQSGPELARPGASVKLSCKASGYTFTDYWMQWVKQRPGQGLEWIGTIYPGDGYTRYIQKFKGRATLTADKSSSTAYMQLNSLASEDSAVYYCARRAAYYTMDYWGQGTSVTVSS VL: DIVMTQSHKFMSTSVGDRVSITCKASQDVNTAVAWYQQKPGQSPKLLIYWASTRHTGVPDRFTGSGSGTDYILTISSVQAEDLALYYCQQHYSSPWTFGGGTKLEIT
Response: 1.55e-05

Query: How about humanized antibody AB5C5 (antibody, V domains shown, Humanized from #56 by CDR transplantation) VH: QVQLQESGPGLVKPSETLSLTCTVSGFSLTGYGWGWVRQPPGKGLEWLGSIWADGDTYYNPSLKSRVTISVDTSKNQFSLKLSSVTAADTAVYYCARDSYYYGYNFFDVWGQGTMVTVSS VL: DIQMTQSPSSLSASVGDRVTITCQASQDISNYLNWYQQKPGKAPKLLIYYTSNLESGVPSRFSGSGSGTDFTFTISSLQPEDIATYFCQQGNTLPRTFGGGTKVEIK ?
Response: 1.59e-05
